target.or.system: NLRP3 (Homo sapiens)
Construct: Seed THP-1 cells (25,000 cells/well) containing 1.0 μg/ml LPS in 40 μl of RPMI medium
Sequence (Q96P20 whole entry): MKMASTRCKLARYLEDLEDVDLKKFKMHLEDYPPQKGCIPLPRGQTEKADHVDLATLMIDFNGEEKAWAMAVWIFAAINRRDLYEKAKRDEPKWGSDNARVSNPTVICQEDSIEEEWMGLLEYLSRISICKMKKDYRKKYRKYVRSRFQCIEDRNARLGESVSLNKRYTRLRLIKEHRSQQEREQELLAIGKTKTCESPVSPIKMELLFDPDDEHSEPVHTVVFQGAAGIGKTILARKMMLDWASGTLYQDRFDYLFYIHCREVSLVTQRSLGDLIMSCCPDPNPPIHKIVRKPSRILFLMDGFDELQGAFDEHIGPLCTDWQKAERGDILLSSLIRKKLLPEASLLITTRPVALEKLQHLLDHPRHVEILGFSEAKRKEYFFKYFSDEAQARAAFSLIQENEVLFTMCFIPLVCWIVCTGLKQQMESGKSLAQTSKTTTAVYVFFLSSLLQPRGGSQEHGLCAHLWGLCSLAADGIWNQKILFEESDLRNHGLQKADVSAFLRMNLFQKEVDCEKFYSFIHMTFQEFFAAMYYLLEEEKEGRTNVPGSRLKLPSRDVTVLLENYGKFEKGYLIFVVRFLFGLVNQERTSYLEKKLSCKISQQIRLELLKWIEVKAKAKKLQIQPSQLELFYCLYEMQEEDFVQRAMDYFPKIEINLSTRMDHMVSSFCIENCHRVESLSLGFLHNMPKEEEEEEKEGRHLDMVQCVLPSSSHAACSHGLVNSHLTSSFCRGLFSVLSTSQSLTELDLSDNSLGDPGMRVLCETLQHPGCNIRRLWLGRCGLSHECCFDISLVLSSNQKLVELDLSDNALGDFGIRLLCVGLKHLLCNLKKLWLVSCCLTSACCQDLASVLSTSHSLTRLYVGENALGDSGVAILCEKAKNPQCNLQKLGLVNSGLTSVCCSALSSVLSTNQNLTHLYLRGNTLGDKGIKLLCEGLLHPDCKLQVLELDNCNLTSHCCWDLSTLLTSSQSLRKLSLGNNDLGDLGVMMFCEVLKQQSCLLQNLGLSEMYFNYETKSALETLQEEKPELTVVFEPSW
assay.comment: THP-1 cells pyroptosis assay
condition.context: 1.0 μg/ml LPS, compound 3 hrs, nigericin 5 μM 1 hr, resazurin readout
Structures can show the parent of a compound that is named as a salt.
IC50 values, listed per item

>>> df
                                   compound  metric  measured_value
0  CC(C)c1cc(F)cc(C(C)C)c1CC(=O)NS(=O)(=O)c1cc(CN(C)C)n(C2CC2)n1 [Example 10]    IC50       1 to 5 µM

Query: So what does the record say about IC50 for CC(C)c1cc(F)cc(-c2cccnc2)c1CC(=O)NS(=O)(=O)c1cc(C(=O)N(C)C)n(C)n1 [Example 5] ?
Result: 1 to 5 µM

Query: Entry under review: CC(C)c1cc(F)cc(C(C)C)c1CC(=O)NS(=O)(=O)c1ccn(CCN(C)C)n1 [Example 16] . Reported IC50?
Result: 5 to 10 µM

Query: Entry under review: COc1cc(-c2cc(F)cc(C(C)C)c2CC(=O)NS(=O)(=O)c2cc(C(=O)N(C)C)n(C)n2)ccn1 [Example 4, potassium salt] . Reported IC50?
Result: ≤ 1 µM

Query: Name the recorded IC50 for COc1cc(-c2cc(F)cc(C(C)C)c2CC(=O)NS(=O)(=O)c2ccn(C(C)(C)CN(C)C)n2)ccn1 [Example 18] .
Result: 1 to 5 µM

Query: What does the record list as IC50 for CC(c1cc(S(=O)(=O)NC(=O)Cc2c3c(cc4c2CCC4)CCC3)nn1C1CC1)N(C)C (stereo not shown) [Example 9] ?
Result: 1 to 5 µM

Query: Field request: IC50 | item: CC(C)c1cc(F)cc(C(C)C)c1CC(=O)NS(=O)(=O)c1cc(C(=O)N(C)C)n(C)n1 [Example 2]
Result: 1 to 5 µM
